System: pigweed (Amaranthus retroflexus)
experimentalDetails: Test C greenhouse herbicide test, pre- and postemergence
Type: in vivo
experimentalParameters: Postemergence, 250 g ai/ha; scale 0 to 100, 0 no effect, 100 complete control; 13 to 15 d
Readings of Plant response rating, Pigweed for the listed compounds
Enter the number alone.

Worked cases, answers included:
# compoundSmiles, assayedTarget, endpointName, quantitativeReadout
data = [
    ("Cc1ccc2ccccc2c1-c1c(O)c(Cl)nn(C)c1=O", "pigweed (Amaranthus retroflexus)", "Plant response rating, Pigweed", 98),
    ("CCC(=O)Oc1c(Cl)nn(C)c(=O)c1-c1c(C)sc2ccc(Cl)cc12", "pigweed (Amaranthus retroflexus)", "Plant response rating, Pigweed", 98),
    ("C#CCOC(=O)Oc1c(C)nn(C)c(=O)c1-c1c(C)sc2ccc(C)cc12", "pigweed (Amaranthus retroflexus)", "Plant response rating, Pigweed", 98),
    ("Cc1cc(C)c2sc(C)c(-c3c(OC(=O)OCCCl)c(C)nn(C)c3=O)c2c1", "pigweed (Amaranthus retroflexus)", "Plant response rating, Pigweed", 90),
]

Value lookup for Plant response rating, Pigweed; key = "Cc1ccc2ccccc2c1-c1c(O)c(C)nn(C)c1=O"
98

Value lookup for Plant response rating, Pigweed; key = "CCC(=O)Oc1c(C)nn(C)c(=O)c1-c1c(C)sc2ccc(C)cc12"
98

Value lookup for Plant response rating, Pigweed; key = "Cc1nn(C)c(=O)c(-c2cccc3ccc(C#N)cc23)c1O"
95

Value lookup for Plant response rating, Pigweed; key = "CC(=O)Oc1c(C)nn(C)c(=O)c1-c1c(C)oc2ccc(C)cc12"
90

Value lookup for Plant response rating, Pigweed; key = "CC(=O)Oc1c(C#N)nn(C)c(=O)c1-c1c(C)ccc2ccccc12"
100

---

Test system: velvetleaf (Abutilon theophrasti)
experimentalDetails: Test C greenhouse herbicide test, pre- and postemergence
Type: in vivo
experimentalParameters: Postemergence, 250 g ai/ha; scale 0 to 100, 0 no effect, 100 complete control; 13 to 15 d
Think of 90 as a floor: if Plant response rating, Velvetleaf stands on it or above, it is t; beneath it, f.

These solved cases illustrate the format of a correct answer.
# compoundSmiles, className
data = [
    ("CC(=O)Oc1c(C)nn(C)c(=O)c1-c1c(C)sc2ccc(C)cc12", "t"),
    ("Cc1cc(C)c2sc(C)c(-c3c(OC(=O)OC(C)C)c(C)nn(C)c3=O)c2c1", "t"),
    ("Cc1nn(C)c(=O)c(-c2c(C)sc3ccccc23)c1O", "f"),
]

Kindly determine if Plant response rating, Velvetleaf recorded for "CC(=O)Oc1c(C#N)nn(C)c(=O)c1-c1c(C)ccc2ccccc12" is above or exactly 90.
t

Kindly determine if Plant response rating, Velvetleaf recorded for "CCC(=O)Oc1c(C)nn(C)c(=O)c1-c1c(C)sc2ccc(Cl)cc12" is above or exactly 90.
t

Kindly determine if Plant response rating, Velvetleaf recorded for "CC(=O)Oc1c(C)nn(C)c(=O)c1-c1c(C)cc(C)c2ccccc12" is above or exactly 90.
t

Kindly determine if Plant response rating, Velvetleaf recorded for "Cc1ccc2ccc(C)c(-c3c(O)c(C)nn(C)c3=O)c2c1" is above or exactly 90.
t

Kindly determine if Plant response rating, Velvetleaf recorded for "Cc1nn(C)c(=O)c(-c2cccc3ccc(C#N)cc23)c1O" is above or exactly 90.
f

Kindly determine if Plant response rating, Velvetleaf recorded for "Cc1cc(C)c2sc(C)c(-c3c(OC(=O)OCCCl)c(C)nn(C)c3=O)c2c1" is above or exactly 90.
t

Kindly determine if Plant response rating, Velvetleaf recorded for "CC(=O)Oc1c(C)nn(C)c(=O)c1-c1c(C)sc2c(C)cc(C)cc12" is above or exactly 90.
t

Kindly determine if Plant response rating, Velvetleaf recorded for "Cc1cc(C)c2ccccc2c1-c1c(O)cnn(C)c1=O" is above or exactly 90.
f
